Data provenance is the supplement of paper PMC13380429.

The following compounds are listed with their measured cell viability values.
test system: U2OS; experiment: cell viability relative to DMSO; higher = less toxic; conditions: 72 h; 10 nM
Kindly answer with a numeric value in %, unit omitted.

Completed entries (count: 2):
| Compound | System | Result unit | cell viability |
| --- | --- | --- | --- |
| COc1ccc(-c2oc3cc(OC)ccc3c2C(=O)c2ccc(C#N)cc2)cc1 | U2OS | % | 103 |
| CC(C)(C)c1ccc(S(=O)(=O)NCc2ccc(C(=O)Nc3cccnc3)cc2)cc1 [STF-31] | U2OS | % | 98.8 |

Now turn to the next compound.
[Q] Please indicate cell viability recorded for O=C1CCCN1CC#CCN1CCCC1 [oxotremorine-sesquifumarate]
[A] 94.3

====

test system: Caco-2; assay: cell viability relative to DMSO; higher = less toxic; settings: 72 h; 10000 nM
Metric: cell viability (%)
Kindly answer with a numeric value in %, unit omitted.

Completed entries (count: 5):
| Molecule | cell viability, % |
| --- | --- |
| CC(C)(C)c1cc(O)c(C(C)(C)C)cc1O [BHQ] | 88.9 |
| Nc1nc(OCC2CCCCC2)c2nc[nH]c2n1 [NU-2058] | 90.3 |
| CC(C)(CO)[C@@H](O)C(=O)NCCC(=O)O [pantothenic-acid] | 66.4 |
| CC1(C)[C@@H](O)CC[C@]2(C)[C@H]3C(=O)C=C4[C@@H]5C[C@@](C)(C(=O)O)CC[C@]5(C)CC[C@@]4(C)[C@]3(C)CC[C@@H]12 [enoxolone] | 96.3 |
| CCN1CCN(c2ccc(C(C)(C)NC(=O)c3cc4[nH]c5ccccc5c(=O)c4cc3F)cn2)CC1 | 86.5 |

[Q] Please indicate cell viability recorded for CCNC(=O)[C@@H]1CCCN1C(=O)[C@H](CCCNC(=N)N)NC(=O)[C@H](CC(C)C)NC(=O)[C@@H](C)NC(=O)[C@H](Cc1ccc(O)cc1)NC(=O)[C@H](CO)NC(=O)[C@H](Cc1c[nH]c2ccccc12)NC(=O)[C@H](Cc1cnc[nH]1)NC(=O)[C@@H]1CCC(=O)N1 [alarelin]
[A] 102

[Q] Please indicate cell viability recorded for CCCCN1CCC(CNC(=O)c2c3n(c4ccccc24)CCCO3)CC1 [piboserod]
[A] 93.4

[Q] Please indicate cell viability recorded for CSc1ccc(OCc2ncc([N+](=O)[O-])n2C)cc1 [fexinidazole]
[A] 96.9

[Q] Please indicate cell viability recorded for C=C1/C(=C\C=C2/CCC[C@]3(C)[C@@H]([C@H](C)CCCC(O)(C(F)(F)F)C(F)(F)F)CC[C@@H]23)C[C@@H](O)C[C@@H]1O [falecalcitriol]
[A] 92.6

[Q] Please indicate cell viability recorded for Cn1c(=O)c2[nH]c(Br)nc2n(C)c1=O [pamabrom]
[A] 101

[Q] Please indicate cell viability recorded for CN(c1ccc(NC(=O)Nc2ccccc2)cc1)S(=O)(=O)c1cnn(-c2ccc(F)cc2)c1 [BTT-3033]
[A] 100

====

system: Vero E6; test: cell viability relative to DMSO; higher = less toxic; conditions: 72 h; 100 nM
Metric: cell viability (%)
Kindly answer with a numeric value in %, unit omitted.

| Sample smiles | System | cell viability / % |
| --- | --- | --- |
| Cc1[nH]c(=O)c(C#N)cc1-c1ccc2nccn2c1 | Vero E6 | 94.2 |
| COc1cc(OC)c(OC)cc1C=O | Vero E6 | 98.6 |

Now turn to the next compound.
[Q] Please indicate cell viability recorded for COc1ccccc1-c1c[nH]c2ncc(-c3cncc(C(=O)N(C)C)c3)cc12
[A] 100
